B1: Formin-binding protein 4, residues 593 to 636; numbered along this chain, Q8N3X1 (parent)
chain: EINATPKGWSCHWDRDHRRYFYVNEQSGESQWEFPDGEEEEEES

Variants of: B1
Experiment: abundance fitness (aPCA) (normalised: wild type 0, dead -1); higher = more abundant; growth selection in yeast, the domain comes from the species named
Conditions: Homo sapiens
Mark TRUE for reported abundance fitness of -0.3 or greater; mark FALSE for anything smaller.

G28R : FALSE
I2Y : TRUE
H17G : TRUE
N24E : FALSE
E25A : TRUE
E39K : TRUE
S30I : TRUE
G37E : TRUE
R19L : FALSE
E38W : FALSE

Could you verify whether the entry G28E shows abundance fitness of no less than -0.3?
FALSE

Could you verify whether the entry E41S shows abundance fitness of no less than -0.3?
TRUE

Could you verify whether the entry I2W shows abundance fitness of no less than -0.3?
TRUE

Could you verify whether the entry H17Q shows abundance fitness of no less than -0.3?
TRUE

Could you verify whether the entry S44M shows abundance fitness of no less than -0.3?
FALSE

Could you verify whether the entry Q31L shows abundance fitness of no less than -0.3?
FALSE
